- protocol-text: Microsomal stability, human liver microsomes (predicted hepatic clearance)
- study-conditions: predicted from in vitro microsomal stability data
measure-name: Predicted Hepatic Clearance (Pred. Cl.) (mL/min/kg)
Respond with the bare value in mL/min/kg.

Worked set:
# given-smiles, Predicted Hepatic Clearance (Pred. Cl.), mL/min/kg
records = [
    ("N#Cc1ccc(COc2ncc(F)c(-c3ccc(Cc4nc5c(F)cc(C(=O)O)cc5n4C[C@@H]4CCO4)cc3F)n2)c(F)c1", 8.83),
    ("COCCn1c(Cc2cc(F)c(-c3cccc(OCc4cccc5c4COC5)n3)cc2F)nc2ccc(C(=O)O)cc21", 12.2),
    ("COCCn1c(Cc2ccc(-c3cccc(OCc4ccc(CC#N)cc4)n3)cc2F)nc2ccc(C(=O)O)cc21", 8.67),
    ("N#Cc1ccc(COc2cccc(-c3cc(F)c(Cc4nc5ccc(C(=O)O)cc5n4CC45COC(C4)C5)cc3F)n2)c(F)c1", 5),
    ("COCCn1c(Cc2cc(F)c(-c3ccc(F)c(OCc4ccc(C(F)(F)F)cc4F)n3)cc2F)nc2c(F)cc(C(=O)O)cc21", 1.83),
]

Data request: Let me know recorded Predicted Hepatic Clearance (Pred. Cl.) for "COCCn1c(Cc2ccc(-c3cccc(OCc4cccc(C(C)(C)C)c4)n3)cc2F)nc2ccc(C(=O)O)cc21" , thanks.
Data returned: 5.5
